Numbers sourced from the supplement of paper PMC10724198.

# Test system: Saccharomyces cerevisiae;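 note: PSI is a weighted mean of sequencing reads over stability bins, variants kept only with over 10 reads, mCherry proximal and sfGFP distal, peptide attached via GGGS linker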
# assay: protein stability index of tFT-peptide fusion (C-terminal peptide) (PSI (0-1 scale)); higher = more stable (slower turnover)
# reported conditions: genetic background: das1 deletion; temperature: 30 C
# cutoff 0.6 applies to protein stability index; >= gives 1, < gives 0

[ask] Given the entry ERRWVLVAWRFK , answer whether its protein stability index meets or surpasses 0.6.
[reply] 0

[ask] Repeat for the following sequence: GFPFLCSFLLAS
[reply] 0

[ask] And what about the sequence KLLISLTWFCVL ?
[reply] 0

[ask] Cool, now CSFCSGMILLLS
[reply] 0

[ask] Try CQVSEWIRYRFL next.
[reply] 1

[ask] Next entry: LAVFSSPELSFP
[reply] 1
